Test: bacterial viability reduction in E. coli – absorbance, OD600, counter-screen for AddAB inhibitor project, primary screen (AID 449728);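 note: uninfected addAB+ strain grown without phage in ampicillin broth; 0% = DMSO wells and 100% = ciprofloxacin 0.95 µg/ml wells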
Settings: E. coli V3065 growth, 18 h, at 11.9 µM, active compounds read high
About 900 (0.27%) of roughly 330,000 compounds were called active. Only a selection was taken, and actives are over-represented in it overall.
Listed here are compounds together with their documented inhibition.
Just the number in %, nothing appended.

Observe how each entry below is paired with its result.
Compound | inhibition [%]
COC(=O)c1ccc(COC(=O)c2cnccn2)cc1 | -0.61
COc1ccc(Br)cc1/C=N/Nc1ccc(Cl)c(C(=O)O)c1 | -3.01
Cc1ccc(C23CC4CC(CC(C(=O)NCC(=O)O)(C4)C2)C3)cc1 | 1
COc1ccc(C(=O)COC(=O)c2ccc3ccccc3n2)cc1 | 0.25
O=C(Nc1cccnc1Cl)c1cc(-c2ccccc2O)on1 | -1.11
C=CCNC(=O)c1csc(-c2ccccc2)n1 | -0.67
CC(NS(=O)(=O)c1ccc(Cl)cc1)C(=O)Nc1ccc2c(c1)OCCO2 (configuration not stated) | -2.14
CSc1cc(C)[nH]c(=O)n1 | -2.18

Report inhibition for CCC1OC(c2ccc([N+](=O)[O-])cc2)=Nc2ccccc21 (configuration not stated) -1.44

Report inhibition for `Cc1cc(=O)oc2cc(OCC(=O)N3CCN(c4ccc(F)cc4)CC3)c(Cl)cc12` 1.94

Report inhibition for `OCc1ccc(-c2ccccc2)c(-c2ccccc2)c1` -4.27

Report inhibition for `CCOc1ccccc1NC(=O)C12CC3CC(C1)CC(c1ccc(C)cc1)(C3)C2` 26.6
